target or system: 5-HT1A receptor (Sus scrofa)
Construct: membrane preparations from porcine cortical material; from tissue; host or cells: porcine cerebral cortex membranes
Sequence (A0A4X1UTF5 1-422): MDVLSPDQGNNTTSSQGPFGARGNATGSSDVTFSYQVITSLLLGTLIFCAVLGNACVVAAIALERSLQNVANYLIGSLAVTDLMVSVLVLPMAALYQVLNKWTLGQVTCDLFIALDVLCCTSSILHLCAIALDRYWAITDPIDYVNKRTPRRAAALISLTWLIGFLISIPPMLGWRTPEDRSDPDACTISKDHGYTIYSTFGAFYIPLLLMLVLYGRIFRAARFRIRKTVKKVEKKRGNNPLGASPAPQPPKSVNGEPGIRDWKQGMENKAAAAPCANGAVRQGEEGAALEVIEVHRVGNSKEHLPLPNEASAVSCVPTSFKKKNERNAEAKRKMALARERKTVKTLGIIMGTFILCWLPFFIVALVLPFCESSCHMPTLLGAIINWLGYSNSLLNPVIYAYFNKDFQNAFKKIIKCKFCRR
protocol text: radioligand binding, porcine cortical membranes, [^3H]8-OH-DPAT and [^3H]WAY 100635
test parameters: porcine cortical membranes
pKi: −log10 of the molar value.
A collection of compounds and their measured pKi

1) N#Cc1cnn2ccc(OCCCCN3CCN(c4cccc(Cl)c4Cl)CC3)cc12	6.52 to 7.52

Next item in the queue.
Request: I'd like to know its pKi. The compound in question is Clc1cccc(N2CCN(CCCCOc3ccn4ncc(I)c4c3)CC2)c1Cl
Response: 5.52 to 6.52

---

target or system: 5-HT1A receptor (Sus scrofa)
Construct: membrane preparations from porcine cortical material; from tissue; host or cells: porcine cerebral cortex membranes
Sequence (A0A4X1UTF5 1-422): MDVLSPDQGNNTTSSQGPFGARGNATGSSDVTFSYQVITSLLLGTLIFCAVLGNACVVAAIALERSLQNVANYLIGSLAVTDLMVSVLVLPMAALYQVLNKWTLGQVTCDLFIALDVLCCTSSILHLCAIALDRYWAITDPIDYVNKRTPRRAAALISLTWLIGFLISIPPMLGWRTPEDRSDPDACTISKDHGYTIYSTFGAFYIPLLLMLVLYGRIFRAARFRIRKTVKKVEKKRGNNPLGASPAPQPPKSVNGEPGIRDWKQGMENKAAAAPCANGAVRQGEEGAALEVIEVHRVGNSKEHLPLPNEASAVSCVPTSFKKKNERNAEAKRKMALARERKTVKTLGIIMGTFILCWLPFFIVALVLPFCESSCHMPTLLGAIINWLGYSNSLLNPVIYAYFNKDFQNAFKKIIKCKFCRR
protocol text: radioligand binding, porcine cortical membranes, [^3H]8-OH-DPAT and [^3H]WAY 100635
test parameters: porcine cortical membranes
experimental readout: Ki

1. Clc1cccc(N2CCN(CCCCOc3cccn4nccc34)CC2)c1Cl [Example E7]	30 to 300 nM

Request: Reported Ki for COc1ccccc1N1CCN(CCCCOc2ccn3ncc(CNC(C)=O)c3c2)CC1 [Example E81] : what is it?
Response: < 30 nM

Request: // same read-out, input: O=Cc1cnn2ccc(OCCCCN3CCN(c4cccc(Cl)c4Cl)CC3)cc12 [Example E21]
Response: 30 to 300 nM

Request: Same again, this time with Clc1cccc(N2CCN(CCCCOc3ccn4ncc(Cl)c4c3)CC2)c1Cl [Example E45]
Response: 30 to 300 nM

Request: Same thing, different molecule: CC(=O)c1cnn2ccc(OCCCCN3CCN(c4ccccc4Cl)CC3)cc12 [Example E29]
Response: < 30 nM

Each recorded value in this set is attributed to patent US20100168125A1.
